src = PubChem BioAssay

assay: human hepatoma cell viability loss – ATP luminescence, cytotoxicity control for P. falciparum antimalarial project, primary screen (AID 2303); details: HepG2 viability, 24-48 h, at 10 µM;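 note: 0% = DMSO wells and 100% = digitonin-killed cells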
Activity calls are given as the source filed them.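 Rule for the calls: active = inhibition above 50%; inactive = the rest.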
Hi there, use one of these labels in your reply, thanks! 1.0 (active), 0.0 (inactive)

Previously resolved entries follow.
O=C(Nc1cccc(N2CCC(NCCCn3ccnc3)CC2)c1)c1cccc(C(F)(F)F)c1 :: 0.0
CC(C)(C)c1cc(N=NC(=O)c2ccncc2)cc(C(C)(C)C)c1O :: 0.0
NC(N)=Nc1nccc(NCc2ccccc2)n1 :: 1.0
O=C(/C=C/c1ccc(C(F)(F)F)cc1)NCCCCCN1CCN(C(=O)Nc2ccc(Cl)cc2)CC1 :: 0.0

Req: Tell me the recorded outcome of this test for `Cc1cc(CN2CC[C@H](NC(=O)c3ccc(Cl)c(Cl)c3)C2)ccc1OCCN1CCCC1` .
Resp: 1.0

---

target: L-lactate dehydrogenase (Plasmodium falciparum (isolate CDC / Honduras)); experiment: PfLDH activity inhibition – cell lysate, 3D7 strain, counter-screen for P. falciparum growth inhibition project (AID 2304);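 note: 0% = vehicle and 100% = reference inhibitor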; conditions: P. falciparum 3D7 crude extract, LDH APAD/NBT absorbance; at 2 µM; active compounds read high
The source made the active and inactive calls. No rule for the calls is given here.
QUANTITY: inhibition

Known inhibition results, listed for orientation:
Cc1cc(N[C@@H](Cc2ccccc2)C(=O)NCc2cccs2)nc(NCCc2ccc(F)cc2)n1 :: 3% (inactive)
O=C(NC1CCCc2ccccc21)C1CCCN(C(=O)c2ccc(O)c(-c3ccc(Cl)c(Cl)c3)c2)C1 (centres undefined) :: -8% (inactive)
CCCN(Cc1ccc(C)cc1)Cc1cc(=O)c2cc(Cl)ccc2[nH]1 :: 4% (inactive)
COc1ccc(N2CCc3c(-c4cccc5cnccc45)cc(C)nc32)c(C)c1 :: 0% (inactive)
COc1ccccc1C1CCN(C2CCC(NC(=O)/C=C/c3cccc(C(F)(F)F)c3)CC2)CC1 (centres undefined) :: -3% (inactive)
Cc1ccc(NS(=O)(=O)c2ccc(-c3ccccc3)cc2)c(Cn2cnc(N3CCCNCC3)cc2=O)c1 :: 4% (inactive)
OC(c1n[nH]c(=S)n1-c1ccccc1)C(O)c1n[nH]c(=S)n1-c1ccccc1 (centres undefined) :: 4% (inactive)
COc1cc(CNc2ccc(N3CCCC3)cc2)cc(Cl)c1OC :: 1% (inactive)

# input for lookup
Req: Looking for the measured inhibition of `Cc1c(C)n(C2CCCCC2)c2ncnc(OC3CCN(CC(=O)N4CCCC4)CC3)c12` , can you help?
Resp: -4% (inactive)

---

assay: antimalarial activity against Dd2 strain (AID 2302);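 note: 0% = DMSO untreated growth and 100% = chloroquine plus artemisinin killed control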; settings: P. falciparum Dd2 in RBCs, LDH growth readout, 72 h; at 2 µM
Active and inactive are the calls of the source.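 The calls were made as follows: active = growth inhibition above 50% at the single 2 µM test dose, taken to imply half-maximal potency below 2 µM; inactive = the rest.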
Hi there, use one of these labels in your reply, thanks! true (active), false (inactive)

Previously resolved entries follow.
Oc1ccc(CCNc2nc(NCCCOc3ccccc3-c3ccc(C(F)(F)F)cc3)nc(N3CCNCC3)n2)cc1 :: false
CCCCN1CCN(c2cc(NS(=O)(=O)c3cccc(C(=O)Nc4ccc(C(F)(F)F)cc4)c3)ccc2OC)CC1 :: false
Cn1cncc1C(=O)Nc1ccc(-c2cccc(-c3nc4ccc(C(F)(F)F)cc4[nH]3)c2)cc1 :: false
CCN(CC)C(=NCCCCCCN=C(NC(N)=NCc1ccc(Cl)cc1)N(CC)CC)NC(N)=NCc1ccc(Cl)cc1 :: true
CCN1CCN(CCCNc2c3ccc(Cl)cc3nc3ccc(OC)cc23)CC1 :: true
COc1ccc2nc3cc(Cl)ccc3c(Nc3ccc(O)c(CNC(C)C)c3)c2c1 :: true
COc1ccc(O)cc1/C=N/Nc1ccnc2cc(Cl)ccc12 :: true
Cc1cccc2[nH]c(-c3cccc(-c4ccc(NC(=O)CCc5cnc[nH]5)cc4)c3)nc12 :: true

Req: Tell me the recorded outcome of this test for `Cc1cc(C(=O)Nc2ccc(-c3nc4ccccc4[nH]3)cc2)ccc1[N+](=O)[O-]` .
Resp: false
